tested on: P388; assay: Cytotoxicity against mouse P388 cells; format: functional, cell-based; conditions: Mus musculus, P388
REPORTED METRIC: pIC50
One number for each entry, as −log10 of the molar value.

q: Find pIC50 (P388) for the entry `C=C1C(=O)[C@]2(C)C(=O)O[C@@]34C[C@H](C)C(C(=O)O)=C[C@@H]3CCC[C@@H](C)C[C@@H](C)[C@H]1OC24`
a: 7.05

###

assay: Inhibition of gastric ATPase (unknown origin); type: tissue-based, Homo sapiens, Stomach
REPORTED METRIC: pIC50
Answers are plain numbers, as −log10 of the molar value.

q: So what does the record say about pIC50 for `CC[C@@H]1C[C@]23OC(=O)C(=C2O)[C@@H](O)[C@@H](C)C[C@H](C)CCC[C@]3(C)C=C1C` ?
a: 6.30
